Tested on: HEK-293T
Assay: Multiplex assay against HEK293T;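 note: share of the cells with healthy nuclei that show this phenotype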
Type: toxicity, cell-based
Details: human, 48 h, 1 µM, compound concentration 1 uM, replicate 2
MEASURE: Population Tubulin-Different-Phenotype (%)
Note: unit % is implicit; provide only the numeric part.

Please review the entries below; each comes with its answer.
State its Population Tubulin-Different-Phenotype (%): COc1ncc(-c2ccc3nccc(-c4ccnnc4)c3c2)cc1NS(=O)(=O)c1ccc(F)cc1F
35

State its Population Tubulin-Different-Phenotype (%): Cc1nc(-c2ccc(-c3ccc(C(=O)N4CCc5cc6c(cc54)C4(CCN(C)CC4)CO6)cc3)c(C)c2)no1
56

State its Population Tubulin-Different-Phenotype (%): c1cn2cc(-c3ccc4cn[nH]c4c3)nc(Nc3ccc(N4CCOCC4)cc3)c2n1
55

We next turn to a different compound, shown below.
State its Population Tubulin-Different-Phenotype (%): Cc1c(-c2ccc(O)cc2)n(Cc2ccc(OCCN3CCCCCC3)cc2)c2ccc(O)cc12
32

// data source = ChEMBL document CHEMBL4689842
